Assay: Pharmacokinetics of the compound in rats (intravenous and oral)
Format: in vivo
Conditions: male, SD, plasma, 100 mg/kg; rat, intravenous bolus 100 mpk
Quantity: C0 (µg/mL)

> print(dat)
                          smiles.text  units.text  reported.result
1  CCOc1ccc2c(c1C(=O)O)O[B-](O)(O)CO2       µg/mL              580

###

Test: Pharmacokinetics of the compound in rats (intravenous and oral)
Assay type: in vivo
Conditions: male, SD, plasma, 100 mg/kg; rat, oral 100 mpk
Quantity: AUC(0-t) (µg·h/mL)

> print(dat)
                                   compound  reported.result
1  CCOc1ccc2c(c1C(=O)O)O[B-](O)(O)CO2 [Compound 15]              278
